# Test system: 628569-122-R-J1-PDC complex spheroid viability;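 note: spheroids exposed to agents for seven days before readout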
# experiment summary: Anticancer human tumor 628569-122-R-J1-PDC patient-derived head and neck squamous carcinoma cell line growth inhibition [CLK]
# experimental context: curve of first compound; second compound 0.316 µM

[
  {
    "compound": "Cn1ncnc1[C@H]1c2n[nH]c(=O)c3cc(F)cc(c23)N[C@@H]1c1ccc(F)cc1 + CNC(=O)c1ccc(Nc2nc(OC3CCCC3)c3c(-c4ccc5nc(C)oc5c4)c[nH]c3n2)c(OC)c1",
    "IC50": "1.53 nM"
  },
  {
    "compound": "COc1c(OCCCN2CCOCC2)ccc2c3n(c(=NC(=O)c4cnc(N)nc4)nc12)CCN3 + CNC(=O)c1ccc(Nc2nc(OC3CCCC3)c3c(-c4ccc5nc(C)oc5c4)c[nH]c3n2)c(OC)c1",
    "IC50": "< 3.16 nM"
  },
  {
    "compound": "C=C(F)C(=O)N1CCN(c2nc(OCC3CCCN3C)nc3c2CCN(c2cccc4cccc(Cl)c24)C3)CC1CC#N (stereo not given) + CNC(=O)c1ccc(Nc2nc(OC3CCCC3)c3c(-c4ccc5nc(C)oc5c4)c[nH]c3n2)c(OC)c1",
    "IC50": "3640 nM"
  },
  {
    "compound": "CCCS(=O)(=O)Nc1ccc(F)c(C(=O)c2c[nH]c3ncc(-c4ccc(Cl)cc4)cc23)c1F + CNC(=O)c1ccc(Nc2nc(OC3CCCC3)c3c(-c4ccc5nc(C)oc5c4)c[nH]c3n2)c(OC)c1",
    "IC50": "> 10000 nM"
  },
  {
    "compound": "COC1C=CCC(C)C(C)S(=O)(=O)NC(=O)c2ccc3c(c2)N(CC2CCC21)CC1(CCCc2cc(Cl)ccc21)CO3 (stereo not given) + CN1CCN(c2cc(C(=O)Nc3cc4cc(-c5cnn(C)c5)ccc4cn3)ccn2)CC1",
    "IC50": "< 31.6 nM"
  },
  {
    "compound": "C=CC(=O)Nc1cc(Nc2nccc(-c3cn(C)c4ccccc34)n2)c(OC)cc1N(C)CCN(C)C + CN1CCN(c2cc(C(=O)Nc3cc4cc(-c5cnn(C)c5)ccc4cn3)ccn2)CC1",
    "IC50": "< 0.949 nM"
  },
  {
    "compound": "CC(=O)O[C@H]1C(=O)[C@@]2(C)[C@H]([C@H](OC(=O)c3ccccc3)[C@]3(O)C[C@H](OC(=O)[C@H](O)[C@@H](NC(=O)c4ccccc4)c4ccccc4)C(C)=C1C3(C)C)[C@]1(OC(C)=O)CO[C@@H]1C[C@@H]2O + CNC(=O)c1ccc(Nc2nc(OC3CCCC3)c3c(-c4ccc5nc(C)oc5c4)c[nH]c3n2)c(OC)c1",
    "IC50": "< 31.6 nM"
  },
  {
    "compound": "COc1cccc2c1C(=O)c1c(O)c3c(c(O)c1C2=O)CC(O)(C(=O)CO)CC3OC1CC(N)C(O)C(C)O1 (stereo not given) + CNC(=O)c1ccc(Nc2nc(OC3CCCC3)c3c(-c4ccc5nc(C)oc5c4)c[nH]c3n2)c(OC)c1",
    "IC50": "373 nM"
  },
  {
    "compound": "Nc1ccn(C2OC(CO)C(O)C2(F)F)c(=O)n1 (stereo not given) + CNC(=O)c1ccc(Nc2nc(OC3CCCC3)c3c(-c4ccc5nc(C)oc5c4)c[nH]c3n2)c(OC)c1",
    "IC50": "< 31.6 nM"
  },
  {
    "compound": "CC(CO)NC(=O)c1cc(-c2ccc(Cl)cc2)nn(-c2cnn(C)c2)c1=O (stereo not given) + CN1CCN(c2cc(C(=O)Nc3cc4cc(-c5cnn(C)c5)ccc4cn3)ccn2)CC1",
    "IC50": "> 10000 nM"
  },
  {
    "compound": "CCN1CCN(Cc2ccc(Nc3ncc(F)c(-c4cc(F)c5nc(C)n(C(C)C)c5c4)n3)nc2)CC1 + CN1CCN(c2cc(C(=O)Nc3cc4cc(-c5cnn(C)c5)ccc4cn3)ccn2)CC1",
    "IC50": "< 3.16 nM"
  },
  {
    "compound": "COc1cccc2c1C(=O)c1c(O)c3c(c(O)c1C2=O)CC(O)(C(=O)CO)CC3OC1CC(N)C(O)C(C)O1 (stereo not given) + CN1CCN(c2cc(C(=O)Nc3cc4cc(-c5cnn(C)c5)ccc4cn3)ccn2)CC1",
    "IC50": "< 31.6 nM"
  },
  {
    "compound": "CCN1CCN(Cc2ccc(Nc3ncc(F)c(-c4cc(F)c5nc(C)n(C(C)C)c5c4)n3)nc2)CC1 + CNC(=O)c1ccc(Nc2nc(OC3CCCC3)c3c(-c4ccc5nc(C)oc5c4)c[nH]c3n2)c(OC)c1",
    "IC50": "> 1000 nM"
  },
  {
    "compound": "C=CC(=O)Nc1cc(Nc2nccc(-c3cn(C)c4ccccc34)n2)c(OC)cc1N(C)CCN(C)C + CNC(=O)c1ccc(Nc2nc(OC3CCCC3)c3c(-c4ccc5nc(C)oc5c4)c[nH]c3n2)c(OC)c1",
    "IC50": "17.9 nM"
  },
  {
    "compound": "CC(C)CC(NC(=O)C(Cc1ccccc1)NC(=O)c1cnccn1)B(O)O (stereo not given) + CNC(=O)c1ccc(Nc2nc(OC3CCCC3)c3c(-c4ccc5nc(C)oc5c4)c[nH]c3n2)c(OC)c1",
    "IC50": "< 0.949 nM"
  },
  {
    "compound": "CCc1c2c(nc3ccc(O)cc13)-c1cc3c(c(=O)n1C2)COC(=O)[C@]3(O)CC + CNC(=O)c1ccc(Nc2nc(OC3CCCC3)c3c(-c4ccc5nc(C)oc5c4)c[nH]c3n2)c(OC)c1",
    "IC50": "10.7 nM"
  },
  {
    "compound": "CCCS(=O)(=O)Nc1ccc(F)c(C(=O)c2c[nH]c3ncc(-c4ccc(Cl)cc4)cc23)c1F + CN1CCN(c2cc(C(=O)Nc3cc4cc(-c5cnn(C)c5)ccc4cn3)ccn2)CC1",
    "IC50": "< 31.6 nM"
  },
  {
    "compound": "C#Cc1c(F)ccc2cc(O)cc(-c3ncc4c(N5CC6CCC(C5)N6)nc(OCC56CCCN5CC(F)C6)nc4c3F)c12 (stereo not given) + CNC(=O)c1ccc(Nc2nc(OC3CCCC3)c3c(-c4ccc5nc(C)oc5c4)c[nH]c3n2)c(OC)c1",
    "IC50": "1350 nM"
  },
  {
    "compound": "C=CC(=O)N1CCN(c2nc(=O)n(-c3c(C)ccnc3C(C)C)c3nc(-c4c(O)cccc4F)c(F)cc23)C(C)C1 (stereo not given) + CNC(=O)c1ccc(Nc2nc(OC3CCCC3)c3c(-c4ccc5nc(C)oc5c4)c[nH]c3n2)c(OC)c1",
    "IC50": "> 10000 nM"
  },
  {
    "compound": "Nc1ccn(C2OC(CO)C(O)C2(F)F)c(=O)n1 (stereo not given) + CN1CCN(c2cc(C(=O)Nc3cc4cc(-c5cnn(C)c5)ccc4cn3)ccn2)CC1",
    "IC50": "< 31.6 nM"
  }
]
